So I've got a bunch of molecules here, and I need their pKi values.
In plain terms, pKi is the concentration in mol/L turned into minus its base-10 logarithm.

Prompt: What reported pKi corresponds to `CN(C)C[C@H]1C[C@@H]2c3ccccc3Sc3ccc(F)cc3[C@H]2O1` on D(3) dopamine receptor (Homo sapiens, UniProt P35462)?
Completion: 7.82

Prompt: Item: `CN(C)C[C@H]1C[C@@H]2c3ccccc3Cc3ccccc3[C@H]2O1` Test system: D(3) dopamine receptor (Homo sapiens, UniProt P35462) Read-out: pKi Value: ?
Completion: 7.08

Prompt: Fill in the recorded pKi for this molecule, with D(3) dopamine receptor (Homo sapiens, UniProt P35462) as test system: CN(C)C[C@@H]1CC2c3ccccc3Oc3ccc(Cl)cc3[C@H]2O1 (stereo partly drawn)
Sequence (P35462 whole entry): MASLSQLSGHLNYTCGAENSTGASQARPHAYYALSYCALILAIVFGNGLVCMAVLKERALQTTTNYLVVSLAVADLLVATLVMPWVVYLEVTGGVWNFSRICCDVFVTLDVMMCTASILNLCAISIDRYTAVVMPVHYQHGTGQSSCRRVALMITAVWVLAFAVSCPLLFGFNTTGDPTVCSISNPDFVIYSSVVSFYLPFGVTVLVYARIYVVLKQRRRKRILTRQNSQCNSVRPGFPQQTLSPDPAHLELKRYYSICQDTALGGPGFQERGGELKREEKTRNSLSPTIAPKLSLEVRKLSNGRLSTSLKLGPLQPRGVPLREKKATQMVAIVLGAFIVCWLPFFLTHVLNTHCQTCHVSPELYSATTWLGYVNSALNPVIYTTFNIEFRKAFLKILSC
Completion: 7.35

###

biological target: D(1A) dopamine receptor (Rattus norvegicus, UniProt P18901)
Sequence (P18901 whole entry): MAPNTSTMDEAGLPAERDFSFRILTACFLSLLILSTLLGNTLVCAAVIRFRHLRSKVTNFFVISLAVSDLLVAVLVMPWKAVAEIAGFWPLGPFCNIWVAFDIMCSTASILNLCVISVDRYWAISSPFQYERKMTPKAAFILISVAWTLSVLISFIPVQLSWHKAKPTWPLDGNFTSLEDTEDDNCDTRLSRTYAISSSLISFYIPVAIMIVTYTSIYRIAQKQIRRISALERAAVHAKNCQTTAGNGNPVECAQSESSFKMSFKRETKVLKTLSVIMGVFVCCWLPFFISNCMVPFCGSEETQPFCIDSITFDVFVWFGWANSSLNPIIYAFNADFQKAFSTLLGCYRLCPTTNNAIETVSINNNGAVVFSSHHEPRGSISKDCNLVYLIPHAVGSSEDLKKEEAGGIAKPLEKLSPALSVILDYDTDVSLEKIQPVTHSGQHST
readout_label: pKi
Please keep in mind that pKi is minus log10 of the molar concentration; only the number is needed.

Prompt: # lookup: pKi of CN1CCN2c3ncccc3Cc3ccccc3C2C1 (stereo unspecified)
Completion: 5.38

###

Observed pKi, system Norepinephrine transporter (Rattus norvegicus).
Reminder that pKi is minus the log10 of a molar concentration.

Prompt: Suppose we examine the compound CN1CCN2c3ccccc3Cc3ccccc3C2C1 (stereo not drawn) ; what pKi value has been reported?
Completion: 7.00

Prompt: Record request: pKi value, item `Cc1cc2c(s1)Nc1ccccc1N=C2N1CCN(C)CC1`
Completion: 6.02

Prompt: I have this compound here, CN1CCN2c3ncccc3Cc3ccccc3C2C1 (stereo not drawn) , and I need its recorded pKi.
Completion: 5.79

Prompt: Which pKi is listed for CN(C)C[C@H]1CC2c3ccccc3Oc3ccc(F)cc3[C@H]2O1 (stereo partly drawn) ?
Completion: 8.44

Prompt: Bench note: what pKi did CN(C)C[C@@H]1CC2c3ccccc3Oc3ccc(F)cc3[C@H]2O1 (stereo partly drawn) show?
Completion: 7.70

Prompt: May I ask what pKi has been recorded for `CN(C)C[C@H]1C[C@@H]2c3ccccc3Sc3ccc(F)cc3[C@H]2O1` ?
Completion: 7.40

###

Biological target: 5-hydroxytryptamine receptor 2C (Homo sapiens)
Sequence (P28335 whole entry): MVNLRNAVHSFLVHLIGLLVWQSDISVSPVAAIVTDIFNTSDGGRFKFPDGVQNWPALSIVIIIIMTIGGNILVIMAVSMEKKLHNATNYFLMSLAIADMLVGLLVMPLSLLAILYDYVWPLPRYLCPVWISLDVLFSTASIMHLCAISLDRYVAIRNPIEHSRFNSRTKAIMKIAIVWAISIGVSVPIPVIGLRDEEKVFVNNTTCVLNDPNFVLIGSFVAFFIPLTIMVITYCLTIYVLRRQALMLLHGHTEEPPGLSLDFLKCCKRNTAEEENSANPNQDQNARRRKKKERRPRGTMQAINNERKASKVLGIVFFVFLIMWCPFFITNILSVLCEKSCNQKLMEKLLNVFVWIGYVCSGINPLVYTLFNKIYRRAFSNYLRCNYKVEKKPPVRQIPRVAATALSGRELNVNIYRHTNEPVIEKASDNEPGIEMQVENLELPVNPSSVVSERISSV
readout_label: Ki (nM)
State the answer as a number, implicitly in nM.

Prompt: Need Ki of CN1CCN2c3ncccc3Cc3ccccc3C2C1 (stereo not given) [MIRTAZAPINE] , thanks.
Completion: 39

Prompt: Look up Ki for this compound: CN(C)C[C@H]1CC2c3ccccc3Oc3ccc(F)cc3[C@H]2O1 (stereo not given in full)
Completion: 4.3

Prompt: Name the reported Ki value associated with the compound CN(C)C[C@@H]1CC2c3ccccc3Oc3ccc(Cl)cc3[C@H]2O1 (stereo not given in full)
Completion: 3.7

Prompt: Entry `CN(C)C[C@H]1C[C@@H]2c3ccccc3Sc3ccc(F)cc3[C@H]2O1` has what Ki?
Completion: 1.5

Prompt: Which Ki value is on record for CN(C)C[C@@H]1CC2c3ccccc3Sc3ccc(F)cc3[C@H]2O1 (stereo not given in full) ?
Completion: 0.65

###

For each record, write down the corresponding Ki.
molecular target: D(1A) dopamine receptor (Homo sapiens, UniProt P21728); assay: Inhibition of [3H]SCH-23390 binding to human Dopamine receptor D1
Sequence (P21728 whole entry): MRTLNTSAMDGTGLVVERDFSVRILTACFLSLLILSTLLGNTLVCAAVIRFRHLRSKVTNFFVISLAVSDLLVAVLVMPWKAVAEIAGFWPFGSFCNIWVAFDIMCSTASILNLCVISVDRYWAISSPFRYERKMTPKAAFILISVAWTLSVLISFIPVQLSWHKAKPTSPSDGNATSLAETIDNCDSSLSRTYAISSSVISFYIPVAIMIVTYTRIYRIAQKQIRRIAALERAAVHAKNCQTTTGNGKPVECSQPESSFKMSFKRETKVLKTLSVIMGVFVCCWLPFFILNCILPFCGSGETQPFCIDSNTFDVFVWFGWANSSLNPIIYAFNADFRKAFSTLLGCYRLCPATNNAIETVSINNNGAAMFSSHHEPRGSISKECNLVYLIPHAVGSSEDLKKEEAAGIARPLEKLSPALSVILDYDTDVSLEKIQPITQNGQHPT
Express it in nM; write the number only.

Prompt: Returns the measured Ki for the input compound. Input: CN(C)C[C@H]1CC2c3ccccc3Oc3ccc(Br)cc3[C@H]2O1 (some centres not stated)
Completion: 154

Prompt: # get_value(readout='Ki', item= `CN(C)C[C@H]1C[C@@H]2c3ccccc3Sc3ccc(F)cc3[C@H]2O1` )
Completion: 22

Prompt: Ki lookup needed for CN(C)C[C@@H]1CC2c3ccccc3Sc3ccc(F)cc3[C@H]2O1 (some centres not stated) , thanks.
Completion: 19

Prompt: Which Ki reading was recorded for the compound CN(C)C[C@H]1CC2c3ccccc3Sc3ccc(F)cc3[C@H]2O1 (stereo in doubt; (-)-8d) ?
Completion: 3

Prompt: Name the reported Ki value associated with the compound CN(C)C[C@H]1CC2c3ccccc3Oc3ccc(Cl)cc3[C@H]2O1 (some centres not stated)
Completion: 83

Prompt: Fill in: Ki of CN(C)C[C@H]1CC2c3ccccc3Sc3ccc(F)cc3[C@H]2O1 (stereo in doubt; 8d) is ___
Completion: 5.2

Prompt: # query: Ki of entry CN(C)C[C@@H]1CC2c3ccccc3Oc3ccc(Cl)cc3[C@H]2O1 (some centres not stated)
Completion: 250
